biological target: receptor MRGX2 (Homo sapiens); assay: Functional assay measuring intracellular calcium mobilisation (FLIPR); conditions: Preliminary EC50 data for receptor MRGX2; transiently transfected cells, Fluo3 calcium response
Sequence (Q96LB1 whole entry): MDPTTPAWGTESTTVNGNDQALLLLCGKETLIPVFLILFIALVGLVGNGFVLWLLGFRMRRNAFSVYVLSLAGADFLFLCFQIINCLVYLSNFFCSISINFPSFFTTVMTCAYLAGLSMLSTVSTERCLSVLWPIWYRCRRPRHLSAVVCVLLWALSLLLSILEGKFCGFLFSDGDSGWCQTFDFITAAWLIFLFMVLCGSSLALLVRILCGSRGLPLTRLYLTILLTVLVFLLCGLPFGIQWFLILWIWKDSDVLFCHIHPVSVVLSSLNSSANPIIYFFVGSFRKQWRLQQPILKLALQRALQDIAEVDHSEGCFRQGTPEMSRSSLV
pEC50: −log10 of the molar value.
RECORDED METRIC: pEC50

CHEM SMILES	pEC50
NCCC[C@@H](NC(=O)[C@@H]1CCCN1C(=O)[C@@H]1CSSCCC(=O)N[C@@H](Cc2ccc(O)cc2)C(=O)N[C@@H](Cc2ccccc2)C(=O)N[C@@H](CCC(N)=O)C(=O)N[C@@H](CC(N)=O)C(=O)N1)C(=O)NCC(N)=O	< 5.00

Can you look up the measured pEC50 of `CC(C)C[C@H](NC(=O)[C@H](CCCCN)NC(=O)[C@H](CCCN=C(N)N)NC(=O)[C@H](C)NC(=O)[C@H](CO)NC(=O)[C@H](CCCCN)NC(=O)[C@H](CCCN=C(N)N)NC(=O)[C@H](C)NC(=O)CNC(=O)[C@@H](NC(=O)[C@H](Cc1ccccc1)NC(=O)CNC(=O)CNC(=O)[C@@H](N)Cc1ccccc1)[C@@H](C)O)C(=O)N[C@@H](C)C(=O)N[C@@H](CC(N)=O)C(=O)N[C@@H](CCC(N)=O)C(=O)O` for me?
< 5.00
